Record form. Attribute: Antibiotic MIC. Fill in for each entry.
# System: S. aureus 17314
# assayNotes: Antibiotic MIC by microdilution with or without sub-MIC polymer
# Assay type: cell-based, Staphylococcus aureus
# conditionDescription: S. aureus 17314; +⅓ MIC (2.1 μM) C16(9-ene)KKNC12KNH2
Just the number please, in µg/mL, no unit attached.

So what does the record say about Antibiotic MIC for `Cc1onc(-c2ccccc2)c1C(=O)N[C@@H]1C(=O)N2[C@@H]1SC(C)(C)[C@@H]2C(=O)O` ?
0.25

So what does the record say about Antibiotic MIC for `CC1(C)S[C@@H]2[C@H](NC(=O)Cc3ccccc3)C(=O)N2[C@H]1C(=O)O` ?
1

So what does the record say about Antibiotic MIC for `CC[C@H]1OC(=O)[C@H](C)[C@@H](O[C@H]2C[C@@](C)(OC)[C@@H](O)[C@H](C)O2)[C@H](C)[C@@H](O[C@@H]2O[C@H](C)C[C@H](N(C)C)[C@H]2O)[C@](C)(O)C[C@@H](C)C(=O)[C@H](C)[C@@H](O)[C@]1(C)O` ?
1

So what does the record say about Antibiotic MIC for `CCN1CCN(C(=O)N[C@@H](C(=O)N[C@@H]2C(=O)N3[C@@H]2SC(C)(C)[C@@H]3C(=O)O)c2ccccc2)C(=O)C1=O` ?
2

So what does the record say about Antibiotic MIC for `O=C(O)c1cn(C2CC2)c2cc(N3CCNCC3)c(F)cc2c1=O` ?
32

* * *

Record form. Attribute: Antibiotic MIC. Fill in for each entry.
# Tested on: S. aureus 43300
# assayNotes: Antibiotic MIC by microdilution with or without sub-MIC polymer
# Format: cell-based, Staphylococcus aureus
# conditionDescription: +¼ MIC (1.6 μM) C16(9-ene)KKNC12KNH2
Just the number please, in µg/mL, no unit attached.

So what does the record say about Antibiotic MIC for CC1(C)S[C@@H]2[C@H](NC(=O)Cc3ccccc3)C(=O)N2[C@H]1C(=O)O [Penicillin G, penicillin G] ?
2

So what does the record say about Antibiotic MIC for CN(C)[C@@H]1C(O)=C(C(N)=O)C(=O)[C@@]2(O)C(O)=C3C(=O)c4c(O)cccc4[C@@](C)(O)[C@H]3C[C@@H]12 [Tetracycline, tetracycline] ?
0.25

So what does the record say about Antibiotic MIC for O=C(O)c1cn(C2CC2)c2cc(N3CCNCC3)c(F)cc2c1=O [Ciprofloxacin, ciprofloxacin] ?
0.25

So what does the record say about Antibiotic MIC for CCN1CCN(C(=O)N[C@@H](C(=O)N[C@@H]2C(=O)N3[C@@H]2SC(C)(C)[C@@H]3C(=O)O)c2ccccc2)C(=O)C1=O [Piperacillin, piperacillin] ?
4

So what does the record say about Antibiotic MIC for CC[C@H]1OC(=O)[C@H](C)[C@@H](O[C@H]2C[C@@](C)(OC)[C@@H](O)[C@H](C)O2)[C@H](C)[C@@H](O[C@@H]2O[C@H](C)C[C@H](N(C)C)[C@H]2O)[C@](C)(O)C[C@@H](C)C(=O)[C@H](C)[C@@H](O)[C@]1(C)O [Erythromycin, erythromycin] ?
512

* * *

# Tested on: S. aureus 15819
# assayNotes: Antibiotic MIC by microdilution with or without sub-MIC polymer
# Type: cell-based, Staphylococcus aureus
# conditionDescription: S. aureus 15819; +½ MIC (3.12 μM) C12K(KNC12K)3NH2
measurementKind: Antibiotic MIC

So what does the record say about Antibiotic MIC for `CC1(C)S[C@@H]2[C@H](NC(=O)Cc3ccccc3)C(=O)N2[C@H]1C(=O)O` ?
0.5 µg/mL

So what does the record say about Antibiotic MIC for `O=C(O)c1cn(C2CC2)c2cc(N3CCNCC3)c(F)cc2c1=O` ?
0.06 µg/mL

So what does the record say about Antibiotic MIC for `CCN1CCN(C(=O)N[C@@H](C(=O)N[C@@H]2C(=O)N3[C@@H]2SC(C)(C)[C@@H]3C(=O)O)c2ccccc2)C(=O)C1=O` ?
4 µg/mL

So what does the record say about Antibiotic MIC for `Cc1onc(-c2ccccc2)c1C(=O)N[C@@H]1C(=O)N2[C@@H]1SC(C)(C)[C@@H]2C(=O)O` ?
0.5 to 1 µg/mL

* * *

Record form. Attribute: Antibiotic MIC. Fill in for each entry.
# System: S. aureus 43300
# assayNotes: Antibiotic MIC by microdilution with or without sub-MIC polymer
# Format: cell-based, Staphylococcus aureus
# conditionDescription: +¼ MIC (1.6 μM) C12K(KNC12K)2NH2

So what does the record say about Antibiotic MIC for `CC[C@H]1OC(=O)[C@H](C)[C@@H](O[C@H]2C[C@@](C)(OC)[C@@H](O)[C@H](C)O2)[C@H](C)[C@@H](O[C@@H]2O[C@H](C)C[C@H](N(C)C)[C@H]2O)[C@](C)(O)C[C@@H](C)C(=O)[C@H](C)[C@@H](O)[C@]1(C)O` ?
>512 µg/mL

So what does the record say about Antibiotic MIC for `CCN1CCN(C(=O)N[C@@H](C(=O)N[C@@H]2C(=O)N3[C@@H]2SC(C)(C)[C@@H]3C(=O)O)c2ccccc2)C(=O)C1=O` ?
32 µg/mL

So what does the record say about Antibiotic MIC for `CC1(C)S[C@@H]2[C@H](NC(=O)Cc3ccccc3)C(=O)N2[C@H]1C(=O)O` ?
8 µg/mL

So what does the record say about Antibiotic MIC for `CN(C)[C@@H]1C(O)=C(C(N)=O)C(=O)[C@@]2(O)C(O)=C3C(=O)c4c(O)cccc4[C@@](C)(O)[C@H]3C[C@@H]12` ?
0.5 µg/mL

* * *

# Test system: S. aureus 17314
# assayNotes: Antibiotic MIC by microdilution with or without sub-MIC polymer
# Type: cell-based, Staphylococcus aureus
# conditionDescription: S. aureus 17314; +⅓ MIC (2.1 μM) C12KKNC12KNH2
Record form. Attribute: Antibiotic MIC. Fill in for each entry.
Just the number please, in µg/mL, no unit attached.

So what does the record say about Antibiotic MIC for `O=C(O)c1cn(C2CC2)c2cc(N3CCNCC3)c(F)cc2c1=O` ?
64

So what does the record say about Antibiotic MIC for `CC[C@H]1OC(=O)[C@H](C)[C@@H](O[C@H]2C[C@@](C)(OC)[C@@H](O)[C@H](C)O2)[C@H](C)[C@@H](O[C@@H]2O[C@H](C)C[C@H](N(C)C)[C@H]2O)[C@](C)(O)C[C@@H](C)C(=O)[C@H](C)[C@@H](O)[C@]1(C)O` ?
1

So what does the record say about Antibiotic MIC for `Cc1onc(-c2ccccc2)c1C(=O)N[C@@H]1C(=O)N2[C@@H]1SC(C)(C)[C@@H]2C(=O)O` ?
0.25

* * *

# Test system: S. aureus 43300
# assayNotes: Antibiotic MIC by microdilution with or without sub-MIC polymer
# Format: cell-based, Staphylococcus aureus
# conditionDescription: no polymer (None), Table 12
Record form. Attribute: Antibiotic MIC. Fill in for each entry.
Just the number please, in µg/mL, no unit attached.

So what does the record say about Antibiotic MIC for `O=C(O)c1cn(C2CC2)c2cc(N3CCNCC3)c(F)cc2c1=O` ?
0.5

So what does the record say about Antibiotic MIC for `CN(C)[C@@H]1C(O)=C(C(N)=O)C(=O)[C@@]2(O)C(O)=C3C(=O)c4c(O)cccc4[C@@](C)(O)[C@H]3C[C@@H]12` ?
0.5

So what does the record say about Antibiotic MIC for `CCN1CCN(C(=O)N[C@@H](C(=O)N[C@@H]2C(=O)N3[C@@H]2SC(C)(C)[C@@H]3C(=O)O)c2ccccc2)C(=O)C1=O` ?
32

So what does the record say about Antibiotic MIC for `Cc1onc(-c2ccccc2)c1C(=O)N[C@@H]1C(=O)N2[C@@H]1SC(C)(C)[C@@H]2C(=O)O` ?
0.5

So what does the record say about Antibiotic MIC for `CC1(C)S[C@@H]2[C@H](NC(=O)Cc3ccccc3)C(=O)N2[C@H]1C(=O)O` ?
8

* * *

Record form. Attribute: Antibiotic MIC. Fill in for each entry.
# Test system: S. aureus 43300
# assayNotes: Antibiotic MIC by microdilution with or without sub-MIC polymer
# Type: cell-based, Staphylococcus aureus
# conditionDescription: +½ MIC (3.12 μM) C12(5-ene)KKNC12KNH2
Just the number please, in µg/mL, no unit attached.

So what does the record say about Antibiotic MIC for CC1(C)S[C@@H]2[C@H](NC(=O)Cc3ccccc3)C(=O)N2[C@H]1C(=O)O [Penicillin G, penicillin G] ?
0.03

So what does the record say about Antibiotic MIC for O=C(O)c1cn(C2CC2)c2cc(N3CCNCC3)c(F)cc2c1=O [Ciprofloxacin, ciprofloxacin] ?
0.03

So what does the record say about Antibiotic MIC for CCN1CCN(C(=O)N[C@@H](C(=O)N[C@@H]2C(=O)N3[C@@H]2SC(C)(C)[C@@H]3C(=O)O)c2ccccc2)C(=O)C1=O [Piperacillin, piperacillin] ?
1

So what does the record say about Antibiotic MIC for Cc1onc(-c2ccccc2)c1C(=O)N[C@@H]1C(=O)N2[C@@H]1SC(C)(C)[C@@H]2C(=O)O [Oxacillin, oxacillin] ?
0.06
